Target: T1, human TfR ectodomain fused to a mouse IgG1 Fc fragment (human, UniProt P02786 89-760)
T1 construct: extracellular domain; ectodomain fused to the N-terminal end of the Fc, made in-house; not shown: mouse IgG1 Fc fragment
T1 sequence (P02786 89-760): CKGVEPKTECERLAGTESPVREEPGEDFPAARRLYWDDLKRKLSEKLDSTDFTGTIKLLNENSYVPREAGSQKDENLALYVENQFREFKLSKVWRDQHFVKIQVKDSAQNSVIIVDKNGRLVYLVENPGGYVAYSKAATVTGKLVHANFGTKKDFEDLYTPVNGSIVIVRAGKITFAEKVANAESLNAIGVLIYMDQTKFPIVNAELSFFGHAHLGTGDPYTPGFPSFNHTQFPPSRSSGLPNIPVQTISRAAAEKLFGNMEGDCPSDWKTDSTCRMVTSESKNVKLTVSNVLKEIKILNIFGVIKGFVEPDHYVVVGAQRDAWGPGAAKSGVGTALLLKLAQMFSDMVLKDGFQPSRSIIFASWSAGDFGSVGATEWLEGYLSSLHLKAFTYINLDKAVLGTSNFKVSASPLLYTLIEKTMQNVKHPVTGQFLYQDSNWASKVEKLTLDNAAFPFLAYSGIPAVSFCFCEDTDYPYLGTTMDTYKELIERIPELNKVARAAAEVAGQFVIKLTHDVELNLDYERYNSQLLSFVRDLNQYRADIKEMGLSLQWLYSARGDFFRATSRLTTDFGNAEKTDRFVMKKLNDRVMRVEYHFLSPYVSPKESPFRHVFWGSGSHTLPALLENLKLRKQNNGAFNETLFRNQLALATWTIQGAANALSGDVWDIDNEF
Test: SPR, kinetic
measure: koff (s⁻¹)

binder="B8^V27 (VHH) VHH: EVQLVESGGGVVQPGGSLRLSCAASGEIFSINFMRWYRQAPGKQREWVAGFTRDGSTVYPDSAKGRFTISRDNAKNTVYLQIDSLKPEDTAVYYCYMLDTWGQGTQVTVSS" measure=koff experimental_result=0.00722
binder="B8^V36 (VHH) VHH: EVQLVESGGGVVQPGGSLRLSCAASGEIFSINVMRWYRQAPGKQREWVAGFTRDGSTNYPDSAKGRFTISRDNAKNTVYLQIDSLKPEDTAVYYCYMLDTWGQGTQVTVSS" measure=koff experimental_result=0.019
binder="VHH A18 (C5^V18) (VHH) VHH: EVQLVESGGGVVQPGGSLKLSCVASGTDFSINFIRWYRQAPGKQREFVAGFTATGNTNYADSMKGRFTISRDNTKNAVYLQIDSLKPEDTAVYYCYMVDKWGQGTQVTVSS" measure=koff experimental_result=0.021
binder="C5^V29 (VHH) VHH: EVQLVESGGGVVQPGGSLKLSCVASGADFSINFIRWYRQAPGKQREFVAGFTATGHTNYADSMKGRFTISRDNTKNAVYLQIDSLKPEDTAVYYCYMLDKWGQGTQVTVSS" measure=koff experimental_result=0.000982
